- assay target: Menin-MLL (Homo sapiens)
- Construct: His-Menin (M1-L615 end); purchased BIORTUS BP9210
- Sequence (O00255 1-615 isoform O00255-1): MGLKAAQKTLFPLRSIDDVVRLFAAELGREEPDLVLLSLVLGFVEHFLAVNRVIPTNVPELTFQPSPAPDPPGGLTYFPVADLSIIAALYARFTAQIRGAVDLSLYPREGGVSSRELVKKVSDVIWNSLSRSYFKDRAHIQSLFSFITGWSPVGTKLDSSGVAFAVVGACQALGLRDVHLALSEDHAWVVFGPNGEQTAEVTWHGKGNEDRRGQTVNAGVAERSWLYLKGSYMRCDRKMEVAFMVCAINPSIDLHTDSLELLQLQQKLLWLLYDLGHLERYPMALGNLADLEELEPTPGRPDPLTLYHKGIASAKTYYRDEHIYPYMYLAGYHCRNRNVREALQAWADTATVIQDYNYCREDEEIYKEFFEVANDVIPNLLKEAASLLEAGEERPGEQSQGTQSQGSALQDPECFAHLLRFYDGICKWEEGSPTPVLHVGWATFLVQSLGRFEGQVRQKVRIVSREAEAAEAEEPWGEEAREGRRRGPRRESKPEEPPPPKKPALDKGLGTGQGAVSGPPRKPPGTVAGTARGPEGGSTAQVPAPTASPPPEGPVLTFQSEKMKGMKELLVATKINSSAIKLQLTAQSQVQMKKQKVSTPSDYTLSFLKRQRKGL
- protocol text: Inhibitory activity against Menin-MLL binding (fluorescence polarization)
- experimental parameters: fluorescence polarization; 150 nM His-Menin, 15 nM FITC-MLL; 25°C for 60 min; read-out: Menin-MLL IC50
pIC50: −log10 of the molar value.
property measured: pIC50

(1) CCN(C(=O)c1cc(F)ccc1-c1cc(C2CN([C@@H](CCCN3CCC(OCCO)CC3)C(C)C)C2)cc2c1cnn2C)C(C)C
(2) CCN(C(=O)c1cc(F)ccc1-c1cc(C2CN([C@H](CCCN3CC4COCC(C3)N4C(=O)OC(C)(C)C)C(C)C)C2)cn2c(C)ncc12)C(C)C
(3) CCNC(=O)N1CCC(C(C)N2CC(c3cc(-c4ccc(F)cc4C(=O)N(CC)C(C)C)c4c(F)nc(C)n4c3)C2)CC1 (stereo not drawn)
(4) CCN(C(=O)c1cc(F)ccc1-c1cc(C2CN([C@H](CN3CCN(C(C)=O)CC3)C(C)C)C2)cc2c1cnn2C)C(C)C
Lookup: Order these compounds (above) by their pIC50, from the smallest value upward. List the labels, following the order given in the request.
Found: 1, 4, 3, 2

(I) Cc1nc(F)c2c(-c3ccc(F)cc3C(=O)N3CCOC[C@H]3C)cc(C3CN(C(CC[C@H]4CN(C)CCO4)C(C)C)C3)cn12 (stereo partly drawn)
(II) CCN(C(=O)c1cc(F)ccc1-c1cc(C2CN([C@H](CCCN3CCO[C@H](CO)C3)C(C)C)C2)cn2c(C)ncc12)C(C)C
Lookup: Identify the item whose pIC50 is the smaller number: I or II Write the label of whichever entry you select.
Found: I
